Reported IC50 values for a set of compounds
Assayed target: RET-wild type (Homo sapiens (Human), UniProt P07949)
Sequence (P07949 29-1114): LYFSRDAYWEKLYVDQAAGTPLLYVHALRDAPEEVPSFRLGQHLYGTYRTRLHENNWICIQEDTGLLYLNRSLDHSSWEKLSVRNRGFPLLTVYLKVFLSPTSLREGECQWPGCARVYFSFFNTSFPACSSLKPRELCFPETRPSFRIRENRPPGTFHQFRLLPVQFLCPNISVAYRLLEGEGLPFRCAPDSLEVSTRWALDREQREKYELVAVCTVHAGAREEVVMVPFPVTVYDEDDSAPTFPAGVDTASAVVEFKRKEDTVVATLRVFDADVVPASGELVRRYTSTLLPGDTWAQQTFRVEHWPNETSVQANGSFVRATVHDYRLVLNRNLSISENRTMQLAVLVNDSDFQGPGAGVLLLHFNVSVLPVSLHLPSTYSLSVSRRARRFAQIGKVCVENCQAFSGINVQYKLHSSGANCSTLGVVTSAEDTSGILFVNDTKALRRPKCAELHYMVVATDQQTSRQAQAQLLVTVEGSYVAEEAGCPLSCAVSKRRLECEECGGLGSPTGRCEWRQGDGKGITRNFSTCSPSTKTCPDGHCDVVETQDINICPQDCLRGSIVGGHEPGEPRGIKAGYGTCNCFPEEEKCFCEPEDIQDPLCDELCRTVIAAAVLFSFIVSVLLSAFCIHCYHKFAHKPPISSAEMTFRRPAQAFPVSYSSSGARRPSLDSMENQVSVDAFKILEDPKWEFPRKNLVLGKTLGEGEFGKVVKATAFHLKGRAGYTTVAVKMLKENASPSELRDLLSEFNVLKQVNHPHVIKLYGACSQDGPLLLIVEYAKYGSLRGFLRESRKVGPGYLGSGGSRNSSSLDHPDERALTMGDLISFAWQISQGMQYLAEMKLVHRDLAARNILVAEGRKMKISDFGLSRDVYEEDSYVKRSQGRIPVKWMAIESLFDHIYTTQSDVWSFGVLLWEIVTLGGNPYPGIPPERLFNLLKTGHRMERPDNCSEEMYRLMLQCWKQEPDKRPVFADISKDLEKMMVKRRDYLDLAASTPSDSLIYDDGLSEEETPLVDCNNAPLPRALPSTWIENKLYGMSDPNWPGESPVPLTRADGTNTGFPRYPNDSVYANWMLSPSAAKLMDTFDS
Assay protocol: Evaluation of RET kinase inhibiting activity (cell system), Ba/F3 cells overexpressing Myc tagged RET
Type: cell-based
Conditions: comparator compounds, Form: Free, read-out: IC50 (nM) RET
Kindly answer with a numeric value in nM, unit omitted.

Field: example entries. Status: answers known.
{"Compound": "COc1cc2cc(-c3ccc(CC(=O)Nc4cc(C(C)(C)C(F)(F)F)no4)cc3)cnc2cc1OC [Ref Ex. 1, reference compound]", "Endpoint value": 8}
{"Compound": "COc1cc2ncc(-c3ccc(CC(=O)Nc4cc(C(C)(C)C(F)(F)F)on4)cc3)nc2cc1OC [Ex. 8, reference compound]", "Endpoint value": 7}
{"Compound": "COc1cc2cc(-c3ccc(CC(=O)Nc4cc(C(C)(C)C(F)(F)F)n[nH]4)cc3)cnc2cc1OC [Ref Ex. 2, reference compound]", "Endpoint value": 5}

If you can, please state the reported IC50 value of COc1cc2cc(-c3ccc(CC(=O)Nc4cc(C(C)(C)C(F)(F)F)no4)c(F)c3)cnc2cc1OC [Ref Ex. 3, reference compound] .
8
